test system: Bone; experiment: Drug uptake in ICR mouse bone at 370 kBq/100 ul, iv at 60 mins by gamma-counting analysis; format: ADME, organism-based, Bone element; conditions: in vivo, 1 h
Readout name: Drug uptake (% ID/g)
State just the number; it will be interpreted in % ID/g.

// known answers, use as guide
Structure smiles string | Drug uptake, % ID/g
CNc1ccc(-c2nc3ccc(OCC[18F])cc3s2)cn1 | 6.7
CNc1ccc(-c2nc3ccc(OCCOCCOCC[18F])cc3s2)cn1 | 1.42
CNc1ccc(-c2nc3cc(OCC[18F])ccc3o2)cn1 | 2.37
CNc1ccc(-c2nc3cc(OCCOCCOCC[18F])ccc3o2)cn1 | 3.93
CN(C)c1ccc(-c2nc3cc(OCC[18F])ccc3o2)cn1 | 1.88

# value of Drug uptake, Bone, item CN(C)c1ccc(-c2nc3cc(OCCOCCOCC[18F])ccc3o2)cn1 = 6.39

# value of Drug uptake, Bone, item CN(C)c1ccc(-c2nc3ccc(OCCOCCOCC[18F])cc3s2)cn1 = 1.58

* * *

List of Drug uptake values.
system: Spleen; test: Drug uptake in ICR mouse spleen at 370 kBq/100 ul, iv at 60 mins by gamma-counting analysis; type: ADME, organism-based; details: in vivo, 1 h
State just the number; it will be interpreted in % ID/g.

Structure smiles string | Drug uptake [% ID/g]
CNc1ccc(-c2nc3ccc(OCC[18F])cc3s2)cn1 | 2.86

CNc1ccc(-c2nc3ccc(OCCOCCOCC[18F])cc3s2)cn1 has a reported Drug uptake of 1.49

CN(C)c1ccc(-c2nc3cc(OCCOCCOCC[18F])ccc3o2)cn1 has a reported Drug uptake of 2.34

* * *

tested on: Brain; test: Ratio of drug uptake in brain at 2 mins to drug uptake in brain at 60 mins in ICR mouse at 370 KBq/100 ul, iv; type: ADME, organism-based; conditions: in vivo
Readout name: Ratio
No unit in the answer, please; the number alone is enough.

// known answers, use as guide
Structure smiles string | Readout name | Observed result
CN(C)c1ccc(-c2nc3cc(OCCOCCOCC[18F])ccc3o2)cn1 | Ratio | 2.08
CNc1ccc(-c2nc3ccc(OCCOCCOCC[18F])cc3s2)cn1 | Ratio | 1.77
CN(C)c1ccc(-c2nc3cc(OCC[18F])ccc3o2)cn1 | Ratio | 4.95
CN(C)c1ccc(-c2nc3ccc(OCCOCCOCC[18F])cc3s2)cn1 | Ratio | 1.77
CNc1ccc(-c2nc3cc(OCCOCCOCC[18F])ccc3o2)cn1 | Ratio | 2.28

CNc1ccc(-c2nc3ccc(OCC[18F])cc3s2)cn1 has a reported Ratio of 2.78

CNc1ccc(-c2nc3cc(OCC[18F])ccc3o2)cn1 has a reported Ratio of 4.66

* * *

tested on: Liver; test: Drug uptake in ICR mouse liver at 370 kBq/100 ul, iv at 2 mins by gamma-counting analysis; type: ADME, organism-based; conditions: in vivo
List of Drug uptake values.
Give your result as the value with the unit written after it.

Structure smiles string | Observed result
CNc1ccc(-c2nc3ccc(OCC[18F])cc3s2)cn1 | 10.4 % ID/g
CN(C)c1ccc(-c2nc3ccc(OCCOCCOCC[18F])cc3s2)cn1 | 12.9 % ID/g

CNc1ccc(-c2nc3cc(OCCOCCOCC[18F])ccc3o2)cn1 has a reported Drug uptake of 14.22 % ID/g

CN(C)c1ccc(-c2nc3cc(OCC[18F])ccc3o2)cn1 has a reported Drug uptake of 15.7 % ID/g

The measurements presented in this section are drawn from ChEMBL document CHEMBL2177098.
